Data credit: patent US20220064105A1

ASSAY METHOD TEXT: Estimated hot solubility in solvents at elevated temperature (approximately solvent boiling point)
Assay type: physicochemical
SETTINGS: 40 °C, organic solvent or mixture, thermodynamic from solid, Dichloromethane (DCM), read-out: Hot Solubility (est)
MEASURED PROPERTY: solubility

- MOLECULE: "COc1ccc(C(=O)NC2(C(=O)O)Cc3ccccc3C2)cc1OCCc1cccc(C)c1 [Compound I]"
  RESULT: "< 4000 µg/mL"

---

ASSAY METHOD TEXT: Estimated hot solubility in solvents at elevated temperature (approximately solvent boiling point)
Format: physicochemical
SETTINGS: 77 °C, organic solvent or mixture, thermodynamic from solid, Ethyl Acetate, read-out: Hot Solubility (est)

- COMPOUND SMILES: "COc1ccc(C(=O)NC2(C(=O)O)Cc3ccccc3C2)cc1OCCc1cccc(C)c1"
  solubility: "5000 to 10000 µg/mL"
